TARGET_OR_SYSTEM: BRD4 (BD1) (Homo sapiens, UniProt O60885)
EXPERIMENT: Homogeneous time-resolved fluorescence binding assay, BRD4
TEST_PARAMETERS: IC50 BRD4 (BD1), mean ± SD from three separate experiments
pIC50: −log10 of the molar value.
MEASUREMENT_KIND: pIC50

Consider the following illustrative entries.
[
  {
    "MOLECULE": "CCS(=O)(=O)Nc1ccc(Oc2ccc(F)cc2F)c(-c2cc(Nc3ncc[nH]3)c(=O)n(C)c2)c1",
    "pIC50": 7.32
  },
  {
    "MOLECULE": "Cn1cc(-c2cc(N3CCC(CO)S3(=O)=O)ccc2Oc2ccc(F)cc2F)c2cc[nH]c2c1=O (centres unmarked)",
    "pIC50": 9.60
  },
  {
    "MOLECULE": "CN1CCN(CCCNC(=O)c2cc3c(-c4cc(N5CCCS5(=O)=O)ccc4Oc4ccc(F)cc4F)cn(C)c(=O)c3[nH]2)CC1",
    "pIC50": 9.12
  }
]

[P] Cn1cc(-c2cc(N3CCCN(CC4(CO)COC4)S3(=O)=O)ccc2Oc2ccc(F)cc2F)c2cc[nH]c2c1=O
[Q] CCS(=O)(=O)Nc1ccc(Oc2ccc(F)cc2F)c(-c2cn(C)c(=O)c3[nH]ccc23)c1 [Compound 2, reference compound]
Exam item: Pick one: P or Q . Which has the bigger pIC50 number? Choose, then provide that item's label.
Marked response: P
(P: 9.24, Q: 8.47)

[1] Cn1cc(-c2cc(N3CCCS3(=O)=O)ccc2Oc2ccc(F)cc2F)c2cc(C(N)=O)[nH]c2c1=O
[2] Cn1cc(-c2cc(N3CCCCS3(=O)=O)ccc2Oc2ccc(F)cc2F)c2cc(C(=O)O)[nH]c2c1=O
[3] Cn1cc(-c2cc(N3CCCCS3(=O)=O)ccc2N[C@@H]2C[C@@H](CO)[C@@H](O)C2)c2cc[nH]c2c1=O
Exam item: hey, can you rank those molecules up there by pIC50? biggest number first please Your reply should list the labels following the order given in the request.
Marked response: 1, 3, 2

[P] Cn1cc(-c2cc(N3CCCS3(=O)=O)ccc2Oc2ccc(F)cc2F)c2cc(C(=O)O)[nH]c2c1=O
[Q] Cn1cc(-c2cc(N3CCCN(CCN4CCOCC4)S3(=O)=O)ccc2Oc2ccc(F)cc2F)c2cc[nH]c2c1=O
Exam item: Hi, I'm comparing two records. Which one has the lower pIC50, P or Q ? Choose, then provide that item's label.
Marked response: P
(P: 7.68, Q: 8.83)

Numbers sourced from paper PMC7893122.
